- assay system: Peroxisome proliferator-activated receptor alpha (Homo sapiens) (UniProt Q07869)
- Sequence (Q07869 whole entry): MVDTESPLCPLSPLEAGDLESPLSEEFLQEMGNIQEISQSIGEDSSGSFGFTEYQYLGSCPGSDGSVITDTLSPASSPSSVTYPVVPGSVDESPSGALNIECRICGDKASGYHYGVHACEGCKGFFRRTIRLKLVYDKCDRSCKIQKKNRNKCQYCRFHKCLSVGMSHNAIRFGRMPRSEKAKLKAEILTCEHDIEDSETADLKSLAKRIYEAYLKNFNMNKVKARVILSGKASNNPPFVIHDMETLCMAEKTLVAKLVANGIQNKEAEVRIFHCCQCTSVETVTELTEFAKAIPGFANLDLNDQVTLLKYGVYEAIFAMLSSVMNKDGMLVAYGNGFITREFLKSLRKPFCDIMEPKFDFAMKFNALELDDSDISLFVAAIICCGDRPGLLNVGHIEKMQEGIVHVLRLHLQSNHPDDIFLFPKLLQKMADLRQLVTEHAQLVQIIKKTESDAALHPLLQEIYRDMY
- test description: Agonist activity at human PPARalpha at 5 uM after 22 to 24 hrs by luciferase reporter gene assay
Activity calls are given as the source filed them. No cut-off for these calls is given here.
Pick one and only one: True (active), False (inactive)

Below, 8 compounds whose answers are already recorded.
O=C(O)c1cccc(NCc2ccc(OCc3ccccc3)cc2)c1 | True
COc1ccc(COc2ccc(CNc3cccc(OC(C)(C)C(=O)O)c3)cc2)cc1 | False
O=C(O)c1cccc(NCc2ccc(OCc3ccc([N+](=O)[O-])cc3)cc2)c1 | True
CC(C)(Oc1cccc(NCc2ccc(OCc3ccccc3)cc2)c1)C(=O)O | False
CC(C)(Oc1cccc(NCc2ccc(OCc3cc(F)cc(F)c3)cc2)c1)C(=O)O | False
O=C(O)c1cccc(NCc2ccc(OCc3ccc(Cl)cc3)cc2)c1 | True
O=C(O)c1cccc(NCc2ccc(OCc3cc(F)cc(F)c3)cc2)c1 | True
CC(C)(Oc1cccc(NCc2ccc(OCc3ccc(Cl)cc3)cc2)c1)C(=O)O | False

For the next question, use this compound.
Input: Tell me the recorded outcome of this test for O=C(O)c1cccc(NCc2ccc(OCc3ccc(Cl)cc3Cl)cc2)c1 .
Output: True
